Kindly state SPOT peptide array binding signal intensity for each of the entries shown.
# System name: ScMyo5
# Test description: SPOT peptide array binding signal intensity (averaged, normalized) (arbitrary units (background-subtracted, floor 0; scale differs between SH3 domains)); higher = stronger binding of the SH3 domain to the peptide
The answer should be written as a number, with no unit following it.

## Task Dear colleague, please send me the reported SPOT peptide array binding signal intensity for LRIKRKPVQTFFEFI when you can.
## Result 1.75

## Task Dear colleague, please send me the reported SPOT peptide array binding signal intensity for SKAKRPKFLLDLQIK when you can.
## Result 1

## Task Dear colleague, please send me the reported SPOT peptide array binding signal intensity for LPPPPPPPPPPPLPQ when you can.
## Result 933

## Task Dear colleague, please send me the reported SPOT peptide array binding signal intensity for KFIPSRPAPKPPSSA when you can.
## Result 1420

## Task Dear colleague, please send me the reported SPOT peptide array binding signal intensity for SSSSTPPTLPPRRIE when you can.
## Result 17.5

Source of measurements: the supplement of paper PMC4466140
